# Target system: Sialate O-acetylesterase (Homo sapiens)
# Test summary: blockers of sialate O-acetylesterase activity-probe labeling – biochemical, fluorescence polarization, FP-Rh probe, 1536-well HTS, primary screen (AID 1053197);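 also: 0% = plate median of compound wells and 100% = probe without SIAE protein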
# Experimental parameters: SIAE FP-Rh probe binding, at 9.66 µM, stronger effect = higher value
In all, about 370,000 compounds went through this assay and about 2,600 (0.7%) were called active. The full list was thinned out, with actives kept by preference.
Give inhibition for every item shown.

Quick one: inhibition of CCOC(=O)C1CCN(C(=O)C(C)(C)NC(=O)Nc2ccc(F)c(F)c2)CC1 ? 0.69% (inactive)

Quick one: inhibition of CC(C)=CCCC1(C)C=Cc2c(ccc3c2[nH]c2cc(O)c(C)cc23)O1 (stereo unspecified) ? 20.8% (active)

Quick one: inhibition of CCOC(=O)[C@]12CCCC=C1N(CCCOC)C(=O)[C@@H]2CC(=O)N1CCOCC1 ? -6.36% (inactive)

Quick one: inhibition of C[C@@H](NC(=O)c1ccccc1OCC(=O)Nc1ccc(I)cc1)C(=O)N(C)Cc1ccccc1 ? -10.2% (inactive)

Quick one: inhibition of COc1ccc(CN(CCN2CCOCC2)C(=O)c2ccc(C)cc2)cc1OC ? -2.14% (inactive)

Quick one: inhibition of Cc1ccc(C2Nc3cccc4cccc(c34)N2)cc1 ? 29.6% (active)

Quick one: inhibition of COc1ccc(C2NC(=O)C(=O)/C2=C(\O)c2ccc(Cl)cc2)cc1OC (stereo unspecified) ? 0.15% (inactive)

Quick one: inhibition of CC(=O)OCCN1CCCC12CCC(c1ccccc1)CC2 (stereo unspecified) ? -7.94% (inactive)

Quick one: inhibition of CCCC1CCC2(CCCN2CCOC(=O)NCc2ccccc2)CC1 (stereo unspecified) ? -1.37% (inactive)

Quick one: inhibition of C=CCN(Cc1ccc2c(c1)OCO2)C(C#CC1CC1)C(C)(C)C (stereo unspecified) ? 4.36% (inactive)

Quick one: inhibition of Oc1ccc(C2Nc3cccc4cccc(c34)N2)cc1 ? 58.9% (active)

====

# Target system: Sialate O-acetylesterase (Homo sapiens)
# Test summary: blockers of sialate O-acetylesterase activity-probe labeling – biochemical, fluorescence polarization, FP-Rh probe, 1536-well HTS, primary screen (AID 1053197);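 also: 0% = plate median of compound wells and 100% = probe without SIAE protein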
# Experimental parameters: SIAE FP-Rh probe binding, at 9.66 µM
In all, about 370,000 compounds went through this assay and about 2,600 (0.7%) were called active.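 How the source made its calls: active means inhibition above a cutoff: mean of compounds within the control limits plus 3 SD of those (cut at about 17% in these data); inactive means the rest.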 The sample as a whole holds a higher share of actives than the screen did.
API: response.call in active, inactive

For CCOC(=O)[C@]12CCCC3=C1N(CCC3)C(=O)[C@@H](CC(=O)N1CCSCC1)C2 , which call appears in the assay record? inactive

For CCOc1ccc(-n2c(SCC(=O)Nc3cc(C)c(NC(=O)c4ccccc4)cc3OC)nnc2-c2cccs2)cc1 , which call appears in the assay record? inactive

For Cc1cc(=O)[nH]c(SCC(=O)Nc2ccc(Cl)cc2C)n1 , which call appears in the assay record? inactive

For CCCCNC(=O)C1CCCN(S(=O)(=O)c2ccc(S(=O)(=O)NCC(C)C)cc2)C1 (stereo not given) , which call appears in the assay record? inactive

For COC(=O)[C@]12C[C@H](CC(=O)NCCc3ccccc3OC)C(=O)N(Cc3ccco3)C1=C[C@H](C(C)C)O[C@@H]2C1CC1 , which call appears in the assay record? inactive

For CN(C)c1ccc(N/C=C/C(=O)C(F)(F)F)cc1 , which call appears in the assay record? active

For COc1ccc2c(c1)CN1CN(CCc3ccccc3)S(=O)(=O)CC21 (stereo not given) , which call appears in the assay record? inactive

For CNC(=S)NNC(=O)c1ccc(N(C)C)cc1 , which call appears in the assay record? inactive

For CC1CN(/C=C/C(=O)C(F)(F)F)CC(C)O1 (stereo not given) , which call appears in the assay record? inactive

For CCCCn1c(N)c(N(CCC(C)C)C(=O)c2ccc([N+](=O)[O-])o2)c(=O)[nH]c1=O , which call appears in the assay record? inactive

====

# Target system: Sialate O-acetylesterase (Homo sapiens) (UniProt Q9HAT2)
# Sequence (Q9HAT2 whole entry, looked up): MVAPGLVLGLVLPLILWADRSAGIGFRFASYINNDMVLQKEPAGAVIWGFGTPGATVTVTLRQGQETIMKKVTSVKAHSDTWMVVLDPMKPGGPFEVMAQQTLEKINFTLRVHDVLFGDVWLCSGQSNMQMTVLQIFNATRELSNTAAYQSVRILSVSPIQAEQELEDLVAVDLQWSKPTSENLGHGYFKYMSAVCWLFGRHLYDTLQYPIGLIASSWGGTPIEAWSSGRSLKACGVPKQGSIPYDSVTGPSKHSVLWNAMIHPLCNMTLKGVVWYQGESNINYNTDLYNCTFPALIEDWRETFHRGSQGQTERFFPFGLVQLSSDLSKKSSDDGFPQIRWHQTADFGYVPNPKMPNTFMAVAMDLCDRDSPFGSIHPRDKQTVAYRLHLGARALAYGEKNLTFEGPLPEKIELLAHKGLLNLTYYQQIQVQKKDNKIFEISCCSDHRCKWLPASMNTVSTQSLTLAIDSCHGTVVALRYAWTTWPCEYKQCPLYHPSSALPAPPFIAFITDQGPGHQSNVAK
# Test summary: blockers of sialate O-acetylesterase activity-probe labeling – biochemical, fluorescence polarization, FP-Rh probe, 1536-well HTS, primary screen (AID 1053197);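 also: 0% = plate median of compound wells and 100% = probe without SIAE protein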
# Experimental parameters: SIAE FP-Rh probe binding, at 9.66 µM, stronger effect = higher value
Among all 370,000 compounds or so, about 2,600 (0.7%) were called active. The list comes from a sample in which actives are over-represented; it also holds close analogues and randomly drawn compounds.
Give inhibition for every item shown.
API: value field is a number in %; no unit string.

Quick one: inhibition of COc1ccc2nc(Nc3nc4cc5c(cc4s3)OCCO5)sc2c1 ? 21.1

Quick one: inhibition of COc1ccc(-c2nnc(SCC(=O)c3ccc4c(c3)OCCO4)o2)cc1 ? -8.81

Quick one: inhibition of COP(=O)(O)CNC(=O)OCc1ccccc1 ? 0.82

Quick one: inhibition of COc1ccc(CSc2nnc(SCC(=O)Nc3ccccc3C(F)(F)F)s2)cc1 ? 2.74

Quick one: inhibition of COc1cc(/C=C/C(=O)OCC(=O)NCCCc2ccccc2)ccc1O ? 9.1

Quick one: inhibition of CC1(C)C/C(=C(/C#N)C(N)=O)CCO1 ? 17.1

Quick one: inhibition of COc1ccc(/C=N/Nc2ncnc3sc4c(c23)CCCC4)cc1O ? -1.15

Quick one: inhibition of CCOC(=O)[C@]12CCCC3=C1N(CCC3)C(=O)[C@@H](CC(=O)NCC13CC4CC(CC(C4)C1)C3)C2 ? -1.2

Quick one: inhibition of Cc1cc(C)n2ncc(C(=O)Nc3ccc4c(c3)OCCO4)c2n1 ? 13.6

Quick one: inhibition of c1coc(CCNc2ncnc3ccc(-c4ccc5c(c4)OCO5)cc23)c1 ? -15.4

Quick one: inhibition of Oc1ccc(/C=N/N(Cc2ccccc2)c2ccccc2)cc1 ? 19.4

Quick one: inhibition of COc1cc(/C=N\Nc2nc(-c3cccs3)c(NC(C)=O)s2)ccc1O ? 18.3

Quick one: inhibition of O=C1CCCC(O)=C1N=Nc1ccc(S(=O)(=O)N2CCOCC2)cc1 ? 32.3

Quick one: inhibition of COc1cccc(/C=C2\CC3(OC(C)=O)CCCN2C3)c1 (stereo not drawn) ? 5.6

Quick one: inhibition of O=C1CCCC(O)=C1N=Nc1ccc2ncsc2c1 ? 4.95

Quick one: inhibition of COc1cc(/C=C/C(=O)n2cnc3ccccc32)cc(OC)c1OC ? -3.74

Quick one: inhibition of COc1ccccc1/C=C/CN1CCC(CO)(Cc2ccccc2)CC1 ? -3.81

Quick one: inhibition of C=CCOC/C=C/C#CCN(CC=C)Cc1ccc(OC)cc1OC ? -0.76

Quick one: inhibition of N#CC(C(N)=O)=C1CCC2(CC1)OCCCCO2 ? -1.29

Quick one: inhibition of CCN(/N=C/c1ccccc1)c1cc(=O)n(C)c(=O)[nH]1 ? 10.2

Quick one: inhibition of COc1ccc(-n2c(SCC(=O)Nc3ccc(C)c(Cl)c3)nc3ccccc3c2=O)cc1 ? -5.2

Quick one: inhibition of Cc1ccc(NC(=S)NNC(=O)CSc2nnc(SCc3ccccc3Cl)s2)cc1 ? 5.21

Quick one: inhibition of CC(=O)O[C@@]1(C(C)=O)CCC2[C@H]3C=C(C)C4=CC(=O)CC[C@@]4(C)C3CC[C@]21C (stereo partly drawn) ? 4.07

====

# Target system: Sialate O-acetylesterase (Homo sapiens) (UniProt Q9HAT2)
# Test summary: blockers of sialate O-acetylesterase activity-probe labeling – biochemical, fluorescence polarization, FP-Rh probe, 1536-well HTS, primary screen (AID 1053197);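 also: 0% = plate median of compound wells and 100% = probe without SIAE protein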
# Experimental parameters: SIAE FP-Rh probe binding, at 9.66 µM, stronger effect = higher value
In all, about 370,000 compounds went through this assay and about 2,600 (0.7%) were called active. Shown is part of a subset that was picked to be rich in actives.
Parameter measured: inhibition (%)
API: value field is a number in %; no unit string.

Quick one: inhibition of Nc1ncnc2c1ncn2[C@@H]1O[C@H](C(=O)N[C@@H](CCc2ccccc2)C(=O)NCC(=O)N2CCOCC2)[C@@H](O)[C@H]1O ? 2.34

Quick one: inhibition of Clc1ccc(-n2c(SC/C=C/c3ccccc3)nnc2-c2ccco2)cc1 ? 6.61

Quick one: inhibition of CCCC(=O)NC(=S)Nc1ccc(CN2CCOCC2)cc1 ? -1.23

Quick one: inhibition of COc1cccc(N2CCN(CC(=O)N(C)Cc3ccc(F)cc3)CC2)c1 ? 1.64

Quick one: inhibition of O=C(c1cccc(C(F)(F)F)c1)N1CC[C@H]2[C@H](CCCN2Cc2cc(F)cc(F)c2)C1 ? 1.24

Quick one: inhibition of Cc1nc(-c2ccc(F)cc2)c(CC(=O)N(C)CC(=O)Nc2c(C)cccc2C)s1 ? -6.4

Quick one: inhibition of Oc1ccc(N2CCN(C(=S)NCc3ccccc3)CC2)cc1 ? 10.2

Quick one: inhibition of CN(C)[C@H]1CCN(c2cccc3c2S(=O)(=O)N2CC[C@H](C2)O3)C1 ? -4.89

Quick one: inhibition of Nc1ncnc2c1ncn2[C@@H]1O[C@H](C(=O)NCC(F)(F)F)[C@@H](O)[C@H]1O ? 51.2

Quick one: inhibition of COC(=O)c1cccc(Cn2ccc3ccc(-c4ccc5ccn(C(=O)c6ccccc6C)c5c4)cc32)c1 ? 12.8

Quick one: inhibition of Cc1ccc(C(=O)CCC(=O)N(C)CC(=O)Nc2c(Cl)cccc2Cl)cc1 ? 4.52

Quick one: inhibition of C=C(C)C#CC(Cc1ccccc1)NCC1CC1 (stereo not given) ? 4.41

Quick one: inhibition of CCCCNC(=O)C[C@@H]1C(=O)N(CCc2ccc(Cl)cc2)C2=CCCC[C@]21C(=O)OCC ? -0.15

Quick one: inhibition of COc1cc(C(=O)Nn2c(O)c(C3=c4ccccc4=NC3=O)sc2=S)ccc1O ? 40.2

Quick one: inhibition of Cc1cc(NS(=O)(=O)c2ccc(NC(=O)CSc3nnc(-c4ccc(C(C)(C)C)cc4)n3Cc3ccco3)cc2)nc(C)n1 ? -2.29

Quick one: inhibition of COc1ccc(NS(=O)(=O)c2ccc(N3CCOCC3)c(NC(=O)c3ccccc3Br)c2)cc1 ? -4.27

Quick one: inhibition of CCOC(=O)[C@]12CCCCC/C=C\1N(Cc1ccc(OC)cc1)C(=O)[C@H]2CC(=O)NCCCN1CCCC1=O ? 4.21

Quick one: inhibition of Cc1cc(C)cc(NC(=S)NCCCN2CCOCC2)c1 ? -2

Quick one: inhibition of COc1ccc2c(C(C)c3ccc(N)cc3)cn(C)c2c1 (stereo not given) ? 15.5

Quick one: inhibition of Cc1ccc(NC(=S)NCCN2CCOCC2)cc1 ? 57.3

Quick one: inhibition of COCC(=O)N[C@@H]1C[C@@H]2O[C@@H](CO)CC[C@@H]2O[C@@H]1CCc1ccc(-c2ccccc2)cc1 ? 2.31

Quick one: inhibition of CCCNC(=O)Nc1ccc2c(c1)C(=O)N(C)[C@H]1CC[C@H](CC(=O)NCC3CCCCC3)O[C@@H]1CO2 ? -0.34

Quick one: inhibition of Nc1ncnc2c1ncn2[C@@H]1O[C@H](C(=O)N2CCSC2)[C@@H](O)[C@H]1O ? 1.67

Quick one: inhibition of Nc1[nH]c(/C=C2/CCCCC2n2[nH]c(=O)n(-c3ccccc3)c2=O)c(Cc2ccccc2)[n+]1Cc1ccccc1 (stereo not given) ? 10.8

Quick one: inhibition of CCCCn1c(=S)[nH]c2cc(S(=O)(=O)N3CCCCC3)ccc21 ? 8.16

Quick one: inhibition of CCCCNC(=O)C[C@H]1C(=O)N(Cc2ccc(OC)cc2)C2=CCCC[C@@]21C(=O)OCC ? -2.41

Quick one: inhibition of CC(=O)OC12CCCN(C1)/C(=C/c1ccncc1)C2 (stereo not given) ? 0.93

Quick one: inhibition of CCn1c(=O)n(CC)c2cc(N3CCCC3)c(NC(=O)c3ccccc3Br)cc21 ? 17.9

Quick one: inhibition of COc1cc(C(=S)NC2CCCCC2)ccc1O ? 2.61

Quick one: inhibition of CCOc1ccccc1Nc1ccc(C(=O)O)cc1[N+](=O)[O-] ? 17.1

Quick one: inhibition of CC[C@@H](CCC(=O)N(c1ccccc1)c1ccccc1)C1CC1 ? -1.88

Quick one: inhibition of CN(Cc1ccc(CNC[C@H]2O[C@@H](n3cnc4c(N)ncnc43)[C@H](O)[C@@H]2O)o1)S(C)(=O)=O ? -0.06

Quick one: inhibition of CNS(=O)(=O)c1ccc2c(c1)[nH]c(=S)n2C ? 18.6

Quick one: inhibition of O=C(NC(=O)c1ccccc1N1CCCCC1)Nc1ccc(Br)cc1 ? 2.43

Quick one: inhibition of Cc1cccc(C)c1NC(=O)CN(C)C(=O)CCC(=O)c1ccccc1 ? 19.1

Quick one: inhibition of CCOC(=O)[C@]12CCCCC/C=C\1N(Cc1ccc(OC)cc1)C(=O)[C@H]2CC(=O)NCc1ccc(C)o1 ? 4.67

Quick one: inhibition of CN(Cc1ccc(C(F)(F)F)cc1)C(=O)[C@H]1O[C@@H](n2cnc3c(N)ncnc32)[C@H](O)[C@@H]1O ? 81.3

Quick one: inhibition of O=C1CCN(C(=S)NCCc2ccccc2)CC1 ? 17.5

Quick one: inhibition of CC(NCc1cccs1)C(=O)Nc1cc(Cl)cc(Cl)c1 (stereo not given) ? 8.74

Quick one: inhibition of CC(C)CNC(=O)OCc1cn(Cc2ccc(F)cc2)nn1 ? -8.33

All values here come from PubChem BioAssay AID1053197.
